Entries and their measured Emax follow.
test system: HEK293; assay: Inhibition of full-length huntingtin Q138 mutant (unknown origin) expressed in human T-RexTM-293 cells co-expressing CRE-Luc assessed as decrease of CREB-mediated transcription after 72 hrs by luciferase reporter gene based luminescence assay relative to control; assay type: cell-based
Report as a plain number; the unit % is understood.

Use these answered entries as a reference point.
O=C(c1ccc[nH]1)N1N=C2CCCC[C@@H]2[C@@]1(O)C(F)(F)F (racemic)	20
O=C(c1ccncc1)N1N=C2CCCC[C@@H]2[C@@]1(O)C(F)(F)F (racemic)	42
CCOC(=O)c1c[nH]nc1S(=O)(=O)N1N=C2CCCC[C@@H]2[C@@]1(O)C(F)(F)F (racemic)	34
O=C(c1cccnc1)N1N=C2CCOC[C@@H]2[C@@]1(O)C(F)(F)F (racemic)	40
Nc1nc(C(=O)N2N=C3CCCC[C@@H]3[C@@]2(O)C(F)(F)F)co1 (racemic)	21

Give HEK293 Emax for Nc1nc(C(=O)N2N=C3CCCC[C@@H]3[C@@]2(O)C(F)(F)F)cs1 (racemic) 44

Give HEK293 Emax for O=C(c1cncc(Br)c1)N1N=C2CCOC[C@@H]2[C@@]1(O)C(F)(F)F (racemic) 24

Give HEK293 Emax for Cc1ccc(C(=O)N2N=C3CCCC[C@@H]3[C@@]2(O)C(F)(F)F)cn1 (racemic) 43

Give HEK293 Emax for Cn1cc(N)c(C(=O)N2N=C3CCCC[C@@H]3[C@@]2(O)C(F)(F)F)n1 (racemic) 30

Give HEK293 Emax for O=C(c1ccc[nH]1)N1N=C2CCCCC[C@@H]2[C@@]1(O)C(F)(F)F (racemic) 6

Give HEK293 Emax for CCNc1cn(C)nc1C(=O)N1N=C2CCCC[C@@H]2[C@@]1(O)C(F)(F)F (racemic) 37

Give HEK293 Emax for Cc1nn(C)c(Cl)c1S(=O)(=O)N1N=C2CCOC[C@@H]2[C@@]1(O)C(F)(F)F (racemic) -17

Give HEK293 Emax for Cc1ccc(C(=O)N2N=C3CCCCC[C@@H]3[C@@]2(O)C(F)(F)F)cn1 (racemic) 30
